# Measured on: 268//NRE (six-finger fusion, Zif268 fingers - longer linker - NRE fingers) (synthetic)
# Test details: EMSA
# Experimental conditions: calculated from koff/kon; direct titration <1.0 pM; p113 states 3.8 fM; room temp
Endpoint: Kd (pM)
Numbers only, in pM.

Task: Entry TCTGCAAGGGTTCAGGCGTGGGCGGTAAG (double strand) [N/Z site] : reported Kd = ?
Result: 0.0037

====

# Measured on: 268//NRE (six-finger fusion, Zif268 fingers - longer linker - NRE fingers) (synthetic) (UniProt P08046)
# Test details: EMSA
# Experimental conditions: calculated from koff/kon; direct titration <1.0 pM; pH 7.0, 100 mM NaCl, 5 mM MgCl2, Zn, room temp
Endpoint: Kd (pM)
One number for each entry, in pM.

Task: Entry TCTGCAAGGGTTCAGCGTGGGCGGTAAG (double strand) [NZ site] : reported Kd = ?
Result: 0.0021
